Test system: HCT15 (colon adenocarcinoma)
ASSAY PROTOCOL: In vitro cytotoxicity, sulforhodamine B (SRB) method, HCT15
Format: cell-based
EXPERIMENTAL SETUP: Homo sapiens; HCT-15, SRB method; read-out: cytotoxicity (ED50) HCT-15
OBSERVATION TYPE: IC50 (µg/mL)
Please reply with the bare figure in µg/mL and do not write the unit itself.

Quick one: IC50 of "O=C(/C=C/c1cccc(O)c1O)c1ccccc1NS(=O)(=O)c1cccc(O)c1" ? 7

Consider the compound "O=C(/C=C/c1cccc(O)c1)c1ccc(NS(=O)(=O)c2ccc(O)cc2)cc1" and give its measured IC50. 33

Param item = "Cc1ccc(S(=O)(=O)Nc2ccc(C(=O)/C=C/c3cc(O)ccc3O)cc2)cc1" ; retrieve measured IC50. 11

Need IC50 of "O=C(/C=C/c1cccc(O)c1)c1cccc(NS(=O)(=O)c2cccc(O)c2)c1" , thanks. 38

State the recorded IC50 for this entry: "Cc1ccc(S(=O)(=O)Oc2ccc(C(=O)/C=C/c3ccc(O)cc3)cc2)cc1" 51

Suppose we examine the compound "Nc1ccccc1S(=O)(=O)Nc1ccc(C(=O)/C=C/c2ccc(O)c(O)c2)cc1" ; what IC50 value has been reported? 13

I have this compound here, "O=C(/C=C/c1ccc(O)cc1)c1ccc(NS(=O)(=O)c2cccc(F)c2)cc1" , and I need its recorded IC50. 54

# IC50 lookup, item "O=C(/C=C/c1ccc(O)c(O)c1)c1ccc(NS(=O)(=O)c2cccc(O)c2)cc1" 4

So what's the measured IC50 for this one? "O=C(/C=C/c1cc(O)ccc1O)c1cccc(NS(=O)(=O)c2cccc(O)c2)c1" 7

// returns reported IC50 for input "Cc1ccc(S(=O)(=O)Nc2ccc(C(=O)/C=C/c3ccc(O)cc3Cl)cc2)cc1" 15

Could you tell me which IC50 is on file for "O=C(/C=C/c1cccc(O)c1O)c1ccc(OS(=O)(=O)c2cccc(O)c2)cc1" ? 9

Entry "O=C(/C=C/c1cc(O)ccc1O)c1cccc(NS(=O)(=O)c2ccc(O)cc2)c1" : reported IC50 = ? 6

GET /values?readout=IC50&item= "O=C(/C=C/c1cc(O)ccc1O)c1ccc(NS(=O)(=O)c2ccc(O)cc2)cc1" 6

Consider the compound shown here: "CS(=O)(=O)Nc1ccc(C(=O)/C=C/c2ccc(O)cc2)cc1" What is its recorded IC50? 54

// lookup IC50 for "O=C(/C=C/c1ccc(O)cc1O)c1ccc(NS(=O)(=O)c2ccc(O)cc2)cc1" 9

Requested field: IC50. Item: "O=C(/C=C/c1ccc(O)cc1)c1cccc(NS(=O)(=O)c2cccc(O)c2)c1" 33

Consider the compound "Nc1ccccc1S(=O)(=O)Nc1ccc(C(=O)/C=C/c2ccc(O)cc2)cc1" and give its measured IC50. 47
